- STUDY_SYSTEM: Human Vanilloid Receptor 1 (Homo sapiens)
- Construct: expressed in transfected cells; host or cells: HEK 293
- EXPERIMENT: Human VR1 functional assay using FLIPR, Protocol 1
- Type: cell-based
- STATED_CONDITIONS: HEK293, 9 uM, inhibition of capsaicin (EC80)-induced calcium response, HEK 293 cells transfected with hVR1, read-out: h % I (9 uM)
- Protocol: The functional activity of the test compounds was determined by measuring changes in intracellular calcium concentration using FLIPR™ Calcium-3 Assay Kit and FLIPR™ technology. […] The EC50 values of test compounds were calculated based on a test compound-induced calcium response at the 5-minute time point. The IC50 values of compounds were calculated based on a decreased capsaicin-induced calcium response in the presence of test compound.
READOUT_TYPE: inhibition at 9 µM (%)

P. O=C(Nc1cnc2ccccc2c1)C1CCN(c2ccc(C(F)(F)F)cc2)CC1 [Example 4]
Q. CCOC(=O)c1[nH]c2ccccc2c1NC(=O)C1CCN(c2cccc(C(F)(F)F)c2)CC1 [Example 14]
R. O=C(Nc1ccc2c(c1)OCO2)C1CCN(c2cccc(C(F)(F)F)c2)CC1 [Example 15]
Problem: Ordering: ascending inhibition at 9 µM. Write the labels, ordered according to the request.
Result: Q, P, R
(Q: 4%, P: 7.5%, R: 61%)

A. Cc1cc(Oc2ccccc2)nc(NC(=O)C2CCN(c3cccc(C(F)(F)F)c3)CC2)n1 [Example 43]
B. O=C(Nc1cnc2ccccc2c1)C1CCN(c2ccc(-c3ccccc3)cc2)CC1 [Example 1]
C. O=C1COc2cc(NC(=O)C3CCN(c4cccc(C(F)(F)F)c4)CC3)ccc2N1 [Example 44]
Problem: Ascending by inhibition at 9 µM, please: list the compounds accordingly. Write the labels, ordered according to the request.
Result: B, A, C

====

- STUDY_SYSTEM: Human Vanilloid Receptor 1 (Homo sapiens)
- Construct: expressed in transfected cells; host or cells: HEK 293
- EXPERIMENT: Human VR1 functional assay using FLIPR, Protocol 1
- Assay type: cell-based
- STATED_CONDITIONS: HEK293, 9 uM, inhibition of capsaicin (EC80)-induced calcium response, HEK 293 cells transfected with hVR1, read-out: h % I (9 uM)
READOUT_TYPE: inhibition at 9 µM (%)

Before answering, review these 5 worked examples.
CHEMICAL_STRING	READOUT_TYPE	RECORDED_MEASUREMENT
N#Cc1ccc(C(F)(F)F)cc1N1CCC(C(=O)Nc2ccc3c(c2)NC(=O)CO3)CC1	inhibition at 9 µM	19.7
O=C1COc2ccc(NC(=O)C3CCN(c4cccc(F)c4)CC3)cc2N1	inhibition at 9 µM	90
O=C1COc2ccc(NC(=O)C3CCN(c4cccc(F)c4Br)CC3)cc2N1	inhibition at 9 µM	93
O=C(Nc1ccc2c(c1)N(CCO)C(=O)CO2)C1CCN(c2cccc(C(F)(F)F)c2)CC1	inhibition at 9 µM	59.6
O=C1COc2ccc(NC(=O)C3CCN(c4ccccc4F)CC3)cc2N1	inhibition at 9 µM	62.3

a. O=C(Nc1cnc2ccccc2c1)C1CCN(c2cccc(-c3ccccc3)c2)CC1
b. O=C(Nc1ncnc2ccccc12)C1CCN(c2cccc(C(F)(F)F)c2)CC1
c. O=C(Nc1cnc2ccccc2c1)C1CCN(c2cccc(C(F)(F)F)c2)CC1
d. CNc1ccc2ncncc2c1NC(=O)C1CCN(c2cccc(C(F)(F)F)c2)CC1
Problem: Ascending by inhibition at 9 µM, please: list the molecules accordingly. Write the labels, ordered according to the request.
Result: b, d, a, c

1. O=C1COc2ccc(NC(=O)C3CCN(c4ccccc4C(F)(F)F)CC3)cc2N1
2. CC(=O)N1CCc2cccc(NC(=O)C3CCN(c4cccc(C(F)(F)F)c4)CC3)c21
Problem: Field: entry with larger inhibition at 9 µM (options 1 / 2 ). # reply format: chosen label
Result: 1
(1: 94.8%, 2: 48.5%)

P. Cc1cccc(N2CCC(C(=O)Nc3cnc4ccccc4c3)CC2)c1C
Q. CC(=O)N1CCc2c(NC(=O)C3CCN(c4cccc(C(F)(F)F)c4)CC3)cccc21
Problem: # query: argmin of inhibition at 9 µM over P and Q # reply format: chosen label
Result: Q
(Q: 61.4%, P: 102%)

====

- STUDY_SYSTEM: Human Vanilloid Receptor 1 (Homo sapiens)
- Construct: expressed in transfected cells; host or cells: HEK 293
- EXPERIMENT: Human VR1 functional assay using FLIPR, Protocol 2
- Assay type: cell-based
- STATED_CONDITIONS: 1.2 uM, test compound-induced calcium response (agonist mode), HEK 293 stably transfected hVR1
READOUT_TYPE: % E80 Capsaicin (1.2 uM) (%)
Hi! Could you send only the number? It should be in %, unit omitted.

Before answering, review these 4 worked examples.
COMPOUND	RECORDED_MEASUREMENT
CC1(C(=O)O)Oc2ccc(NC(=O)C3CCN(c4cc(F)c(F)c(F)c4)CC3)cc2NC1=O (centres unmarked)	116
O=C1COc2c(cccc2NC(=O)C2CCN(c3cc(F)c(F)c(F)c3)CC2)N1	17
CN1C(=O)COc2ccc(NC(=O)C3CCN(c4cc(F)c(F)c(F)c4)CC3)cc21	39
CCOC(=O)C1Oc2ccc(NC(=O)C3CCN(c4cc(F)c(F)c(F)c4)CC3)cc2NC1=O (centres unmarked)	13

Please find the next compound below.
Problem: Find the recorded % E80 Capsaicin (1.2 uM) belonging to O=C(Nc1ccc2c(c1)NC(=O)C(C(=O)O)O2)C1CCN(c2cc(F)c(F)c(F)c2)CC1 (centres unmarked) and report it.
Result: 80

====

- STUDY_SYSTEM: Human Vanilloid Receptor 1 (Homo sapiens, UniProt Q8NER1)
- Construct: expressed in transfected cells; host or cells: HEK 293
- Sequence (Q8NER1 whole entry): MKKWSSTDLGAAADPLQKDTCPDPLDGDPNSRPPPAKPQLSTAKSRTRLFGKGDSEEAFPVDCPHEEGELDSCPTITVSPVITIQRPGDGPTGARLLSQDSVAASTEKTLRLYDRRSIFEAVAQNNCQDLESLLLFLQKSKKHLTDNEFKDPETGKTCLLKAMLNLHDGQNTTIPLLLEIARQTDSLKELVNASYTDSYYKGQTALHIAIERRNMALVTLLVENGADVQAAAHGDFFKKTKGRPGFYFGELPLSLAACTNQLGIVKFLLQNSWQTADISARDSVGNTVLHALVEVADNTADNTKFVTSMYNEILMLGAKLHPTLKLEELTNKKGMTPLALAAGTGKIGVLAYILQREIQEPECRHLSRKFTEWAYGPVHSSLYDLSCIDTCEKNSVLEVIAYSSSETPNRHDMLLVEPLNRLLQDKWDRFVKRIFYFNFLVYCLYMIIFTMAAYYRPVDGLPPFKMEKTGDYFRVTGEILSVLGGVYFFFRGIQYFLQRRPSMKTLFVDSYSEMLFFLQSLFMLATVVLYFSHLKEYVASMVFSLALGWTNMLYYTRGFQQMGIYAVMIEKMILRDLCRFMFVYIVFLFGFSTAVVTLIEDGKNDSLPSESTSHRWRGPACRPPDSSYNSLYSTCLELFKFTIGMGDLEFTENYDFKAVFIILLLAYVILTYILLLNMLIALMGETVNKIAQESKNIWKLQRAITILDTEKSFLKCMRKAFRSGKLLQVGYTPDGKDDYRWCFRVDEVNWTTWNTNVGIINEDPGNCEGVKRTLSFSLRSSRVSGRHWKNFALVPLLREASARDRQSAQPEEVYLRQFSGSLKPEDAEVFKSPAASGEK
- EXPERIMENT: Human VR1 functional assay using FLIPR, Protocol 1
- Format: cell-based
- STATED_CONDITIONS: HEK293, 9 uM, inhibition of capsaicin (EC80)-induced calcium response, HEK 293 cells transfected with hVR1, read-out: h % I (9 uM)
READOUT_TYPE: inhibition at 9 µM (%)

Before answering, review these 2 worked examples.
MOLECULE	READOUT_TYPE	UNIT_SPEC	RECORDED_MEASUREMENT
Cc1nc2ccc(NC(=O)C3CCN(c4cccc(C(F)(F)F)c4)CC3)nc2nc1C [Example 40]	inhibition at 9 µM	%	11.5
O=C1COc2ccc(NC(=O)C3CCN(c4ccccc4Cl)CC3)cc2N1 [Example 152]	inhibition at 9 µM	%	90.7

I. Cc1cccc(N2CCC(C(=O)Nc3ccc4c(c3)NC(=O)CO4)CC2)c1 [Example 140]
II. O=C(Nc1ccc(Oc2ccccc2)nc1)C1CCN(c2cccc(C(F)(F)F)c2)CC1 [Example 32]
Problem: Field: entry with larger inhibition at 9 µM (options I / II ). # reply format: chosen label
Result: I
(I: 84%, II: 13%)

====

- STUDY_SYSTEM: Human Vanilloid Receptor 1 (Homo sapiens)
- EXPERIMENT: Human VR1 functional assay using FLIPR, Protocol 1
- STATED_CONDITIONS: test compound-induced calcium response at the 5-minute time point, HEK 293 hVR1, read-out: h EC50
READOUT_TYPE: EC50 (nM)

Before answering, review these 3 worked examples.
COMPOUND	STUDY_SYSTEM	READOUT_TYPE	RECORDED_MEASUREMENT
Cn1ncc2cc(NC(=O)C3CCN(c4cccc(C(F)(F)F)c4)CC3)ccc21 [Example 24]	Human Vanilloid Receptor 1 (Homo sapiens)	EC50	1500
O=C1Cc2ccc(NC(=O)C3CCN(c4cccc(C(F)(F)F)c4)CC3)cc2N1 [Example 38]	Human Vanilloid Receptor 1 (Homo sapiens)	EC50	320
O=C(Nc1cccc2cc[nH]c12)C1CCN(c2cccc(C(F)(F)F)c2)CC1 [Example 30]	Human Vanilloid Receptor 1 (Homo sapiens)	EC50	5310

a. COc1ccc(NC(=O)C2CCN(c3cccc(C(F)(F)F)c3)CC2)cn1 [Example 25]
b. O=C(Nc1ccc2nc(S)sc2c1)C1CCN(c2cccc(C(F)(F)F)c2)CC1 [Example 26]
c. O=C1Cc2cc(NC(=O)C3CCN(c4cccc(C(F)(F)F)c4)CC3)ccc2N1 [Example 17]
Problem: Sort the 3 compounds by EC50; largest first, smallest last. Write the labels, ordered according to the request.
Result: b, a, c

====

The following compounds each carry a recorded Ki for UniProtKB Q8NER1.
READOUT_TYPE: Ki (nM)

CHEMICAL_STRING	STUDY_SYSTEM	Ki, nM
CC(C)c1ccccc1N1CCC(C(=O)Nc2ccc3c(c2)NC(=O)CO3)CC1	UniProtKB Q8NER1	78
Cc1cccc(N2CCC(C(=O)Nc3ccc4c(c3)NC(=O)CO4)CC2)c1	UniProtKB Q8NER1	225

P. Cc1ccc(N2CCC(C(=O)Nc3cnc4ccccc4c3)CC2)cc1C
Q. Cc1ccc(N2CCC(C(=O)Nc3ccc4c(c3)NC(=O)CO4)CC2)cc1C
Problem: Field: entry with larger Ki (options P / Q ). # reply format: chosen label
Result: Q
